assay: growth suppression of beta-catenin knockout HCT116, pilot screen, human colon tumor cells (AID 823); details: CellTiter-Glo, 60 h, at 10 µM, stronger effect = lower value;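 also: 0% = wells killed by 20 µM Hyamine and 100% = untreated DMSO cell wells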
Inconclusive results are not listed. The source made the active and inactive calls.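 The calls were made as follows: active = cell viability at or below a set limit in both duplicate runs, the limit being the all-compound median minus 4 SD (cut at about 23% in these data, passing the limit was not always enough); inconclusive = no clear call, values can overlap the other calls; inactive = the rest.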
parameterMeasured: viability

Would you mind telling me what viability value was observed for CC(C)Sc1nnc(NC(=O)C2CC2)s1 ?
98.1% (inactive)

Try the molecule Cc1c(C(=O)NCCN2CCOCC2)oc2ccc(S(=O)(=O)N3CCCCCC3)cc12
86.1% (inactive)

Try the molecule COc1ccc(C2/C(=C(/O)c3ccc(F)cc3)C(=O)C(=O)N2CCCN(C)C)cc1 (stereo unspecified)
104% (inactive)

Try the molecule O=C(CN1CCN(C2CCCCC2)CC1)c1ccc2cc[nH]c2c1
94% (inactive)

Try the molecule CN1CCN(C(=O)C2CC(=O)N(c3ccc(F)c(Cl)c3)C2)CC1 (stereo unspecified)
96% (inactive)

Try the molecule Cc1cc(Nc2ccc(Br)cc2)n2nc(C)nc2n1
96.2% (inactive)

Try the molecule Cc1ccsc1C1NC(=O)c2c(sc3c2CCN(C)C3)N1 (stereo unspecified)
97.5% (inactive)

Try the molecule Cc1nn(Cc2c(Cl)cccc2Cl)c(C)c1NC(=O)c1cc(C(C)C)on1
74.2% (inactive)

Try the molecule Cn1c(C(=O)N2CCC(C(N)=O)CC2)cc2c(=O)n(C)c3ccccc3c21
110% (inactive)

Try the molecule O=C(NCC1CCCO1)C1CC(=O)N(c2ccc(F)c(Cl)c2)C1 (stereo unspecified)
86.7% (inactive)

Try the molecule CC(=O)Nc1nc2ccccc2n1CCN(C)C
99.3% (inactive)

Try the molecule COc1ccc(N(CC(=O)Nc2ccc(C)cn2)S(=O)(=O)c2c(C)nn(C)c2C)cc1
97.5% (inactive)

----------
experiment: growth suppression of PTEN-deleted HCT116, pilot screen, cell-based, HCT116 clonal line, CellTiter-Glo (AID 824); conditions: 60 h, at 10 µM, stronger effect = lower value;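 also: 0% = 20 µM Hyamine control and 100% = vehicle cell control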
Records with an inconclusive call do not appear.
// returns Condition not met unless viability is strictly below 90%, in which case Condition met

Use these answered entries as a reference point.
INSERT INTO assay_data (compound, cat) VALUES
  ('COc1ccccc1CNC(=O)C1CCN(S(=O)(=O)c2cccc3cccnc23)CC1', 'Condition not met'),
  ('CCCCNC(=O)Nc1ccc(Br)cn1', 'Condition not met'),
  ('Cc1c(C(=O)NCc2ccccc2)oc2ccc(S(=O)(=O)N3CCCC3)cc12', 'Condition not met'),
  ('Cc1onc(-c2ccccc2Cl)c1C(=O)N(C)C1CCCCC1', 'Condition met'),
  ('O=C(CCC1CCCC1)c1c(O)c2ccccc2oc1=O', 'Condition met');

I'd appreciate it if you could check whether Cc1cccc(N2CCN(C(=O)C3CCCN(S(=O)(=O)c4cccc5cccnc45)C3)CC2)c1C (stereo not drawn) has viability smaller than 90%.
Condition met

Try the compound COc1ccc(NC(=O)C2CCN(S(=O)(=O)c3ccc(C)cc3)CC2)cc1OC
Condition not met

Try the compound Cc1ccc(S(=O)(=O)N=C2SCCCS2)cc1
Condition not met

Try the compound O=C(CC1Oc2ccccc2NC1=O)NCCCN1CCN(Cc2ccccc2)CC1 (stereo not drawn)
Condition not met

Try the compound N#CC(c1nc2ccccc2nc1N1CCCC1)S(=O)(=O)c1ccccc1 (stereo not drawn)
Condition met
